# procedureDetails: in vitro
# measurementSetup: CC50 B/Florida/04/2006, cytotoxicity in the B/Florida/04/2006 assay
measurementKind: CC50

Observe how each entry below is paired with its result.
Cc1nn(Cc2nnc(SCc3cccc4ccccc34)o2)c(C)c1Br    > 50 µM
Cc1ccccc1CCSc1nnc(Cn2nc(C)c(Br)c2C)o1    > 50 µM
CSc1nnc(Cc2ccccc2)o1    > 50 µM
OC(c1cccc(-c2ccccc2)c1)c1nnc(Cc2ccc(Br)cc2)o1 (stereo not drawn)    > 50 µM
Cc1cc(Br)cc(C)c1Nc1nnc(SCc2ccccc2-c2ccccc2)o1    4.02 µM
Cc1nn(Cc2nnc(SCc3ccccc3-c3cccnc3)o2)c(C)c1Br    > 50 µM
Cc1cccc(C)c1Nc1nnc(C(O)c2ccccc2)o1 (stereo not drawn)    > 50 µM
Cc1nc2ccccc2n1Cc1nnc(SCc2ccccc2-c2ccccc2)o1    19.7 µM

GET /value?item= "c1ccc(-c2ccccc2CSc2nnc(Cc3ccccn3)o2)cc1" &field=CC50 returns > 50 µM

====

Parameter: CC50. Scope: all listed entries.
# procedureDetails: in vitro
# measurementSetup: CC50, beside the EC50 of c2

Observe how each entry below is paired with its result.
Brc1ccc(Cc2nnc(-c3ccc4ccccc4c3)o2)cc1 [Compound 98]    > 50 µM
Cc1ccccc1CCc1nnc(Nc2ccc(Br)c(F)c2)o1 [Compound 91]    6.03 µM

GET /value?item= Cc1ccc(Cc2nnc(/C=C/c3ccccc3C(C)C)o2)cc1C [Compound 146] &field=CC50 returns 24.1 µM

GET /value?item= CC(C)c1ccccc1/C=C/c1nnc(Nc2ccc(Br)cc2)o1 [Compound 117] &field=CC50 returns > 50 µM

GET /value?item= Brc1ccc(Nc2nnc(/C=C/c3ccccc3-c3ccccc3)o2)cc1 [Compound 124] &field=CC50 returns > 50 µM

GET /value?item= Fc1ccc(/C=C/c2nnc(Cc3cccc(Br)c3)o2)cc1F [Compound 191] &field=CC50 returns > 50 µM

GET /value?item= CC(C)c1ccccc1OCc1nnc(Cc2ccccc2)o1 [Compound 114] &field=CC50 returns 21.8 µM

GET /value?item= CC(C)c1ccccc1CCc1nnc(Cc2cccc(Br)c2)o1 [Compound 101] &field=CC50 returns > 50 µM

GET /value?item= Fc1ccc(/C=C/c2nnc(Cc3cccc(Cl)c3)o2)c(Cl)c1 [Compound 179] &field=CC50 returns > 50 µM

====

# System: MDCK cells
# procedureDetails: Cytotoxicity (CC50) in the influenza infection assay
# measurementSetup: read-out: CC50 A/Perth/16/2009 (H3N2); cytotoxicity in the A/Perth/16/2009 (H3N2) assay
measurementKind: CC50 (µM)
Express the result in µM but write the number alone.

CC50 of Cc1nn(Cc2nnc(SCc3ccccc3-c3ccncc3)o2)c(C)c1Br [Compound 20] , assay on MDCK cells, is 10.2

====

# procedureDetails: in vitro
# measurementSetup: CC50, beside the EC50 of c4
measurementKind: CC50

Cc1cccc(C)c1/C=C/c1nnc(Cc2ccc(Br)cc2)o1    > 50 µM
CC(C)c1ccccc1/C=C/c1nnc(Cc2cccc3ccccc23)o1    12.2 µM
COC(c1ccccc1)c1nnc(SCc2ccccc2-c2ccccc2)o1 (stereo not shown)    6.2 µM
Cc1cc(C)cc(Cc2nnc(CCc3ccccc3C(C)C)o2)c1    > 50 µM
CC(C)c1ccccc1OCc1nnc(Cc2ccc(Br)cc2)o1    > 50 µM

GET /value?item= "CC(C)c1ccc(/C=C/c2nnc(Cc3ccc(Br)cc3)o2)cc1" &field=CC50 returns > 50 µM

GET /value?item= "C/C(=C\c1ccccc1C)c1nnc(Cc2ccc(Br)cc2)o1" &field=CC50 returns > 50 µM

GET /value?item= CC(C)Cc1ccc(C(C)c2nnc(/C=C/c3ccccc3C(C)C)o2)cc1 (stereo not shown) &field=CC50 returns > 50 µM

GET /value?item= "COc1ccccc1/C=C/c1nnc(Cc2cccc(Br)c2)o1" &field=CC50 returns 48.1 µM

GET /value?item= "Fc1cc(Cl)ccc1/C=C/c1nnc(Cc2cccc(Br)c2)o1" &field=CC50 returns 40.1 µM

GET /value?item= "Cc1cc(Nc2nnc(CCc3ccccc3C)o2)ccc1Br" &field=CC50 returns > 50 µM

GET /value?item= Cc1ccccc1C(C)Cc1nnc(Cc2ccc(Br)cc2)o1 (stereo not shown) &field=CC50 returns > 50 µM

GET /value?item= "Cc1ccc(Cc2nnc(/C=C/c3ccccc3C(C)C)o2)cc1Br" &field=CC50 returns > 50 µM

====

# procedureDetails: in vitro
# measurementSetup: CC50, beside the EC50 of c2
measurementKind: CC50

COc1ccccc1/C=C/c1nnc(Cc2ccc(Br)cc2)o1    > 50 µM
Cc1ccccc1CCc1nnc(Nc2ccc(C(F)(F)F)cc2)o1    35 µM
Cc1ccccc1CC(C)c1nnc(Cc2ccc(Br)cc2)o1 (centres unmarked)    > 50 µM
Fc1ccc(/C=C/c2nnc(Cc3cncc(Br)c3)o2)c(Cl)c1    > 50 µM

Let us move to another entry and its CC50.
GET /value?item= "Brc1ccc(Nc2nnc(/C=C/c3ccccc3Br)o2)cc1" &field=CC50 returns > 50 µM

====

# procedureDetails: in vitro
# measurementSetup: CC50, beside the EC50 of c2
measurementKind: CC50

Observe how each entry below is paired with its result.
Fc1ccc(Cl)c(/C=C/c2nnc(Cc3cccc(Br)c3)o2)c1 [Compound 193]    > 50 µM
Fc1ccc(/C=C/c2nnc(Cc3cccc(Br)c3)o2)cc1 [Compound 188]    > 50 µM
COc1cccc(Cc2nnc(/C=C/c3ccc(F)cc3Cl)o2)c1 [Compound 202]    > 50 µM
Cc1nn(Cc2nnc(S(=O)(=O)Cc3ccccc3-c3ccccc3)o2)c(C)c1Br [Compound 96]    > 50 µM
Cc1ccc(F)c(Cc2nnc(/C=C/c3ccccc3C(C)C)o2)c1 [Compound 173]    13.5 µM

GET /value?item= Cc1ccccc1CSc1ncc(CNc2ccc(Br)cc2)o1 [Compound 99] &field=CC50 returns > 50 µM

GET /value?item= Fc1ccc(/C=C/c2nnc(Cc3ccc(F)c(Br)c3)o2)c(Cl)c1 [Compound 207] &field=CC50 returns > 50 µM

GET /value?item= CC(C)c1ccccc1/C=C/c1nnc(Cc2cccc3ccccc23)o1 [Compound 132] &field=CC50 returns 10.8 µM

GET /value?item= Cc1cc(C)cc(Cc2nnc(/C=C/c3ccccc3C(C)C)o2)c1 [Compound 113] &field=CC50 returns 10 µM

GET /value?item= Cc1cccc(C)c1Nc1nnc(CCc2ccccc2C(C)C)o1 [Compound 85] &field=CC50 returns > 50 µM

GET /value?item= Clc1cccc(/C=C/c2nnc(Cc3ccc(Br)cc3)o2)c1 [Compound 167] &field=CC50 returns > 50 µM

====

# procedureDetails: in vitro
# measurementSetup: CC50, beside the EC50 of c4
Parameter: CC50. Scope: all listed entries.

COc1ccccc1/C=C/c1nnc(Cc2ccc(Br)cc2)o1    > 50 µM

GET /value?item= "Cc1ccccc1CCc1nnc(Nc2ccc(Br)c(F)c2)o1" &field=CC50 returns 15.7 µM

GET /value?item= "Cc1cccc(C)c1CCc1nnc(Cc2ccc(Br)cc2)o1" &field=CC50 returns > 50 µM

GET /value?item= "Cc1ccccc1/C=C/c1nnc(Cc2ccc(Br)cc2)o1" &field=CC50 returns 6.63 µM

GET /value?item= "Brc1ccc(Nc2nnc(/C=C/c3ccccc3-c3ccccc3)o2)cc1" &field=CC50 returns > 50 µM

GET /value?item= "Brc1ccc(Nc2nnc(/C=C/c3ccccc3Br)o2)cc1" &field=CC50 returns > 50 µM

GET /value?item= Cc1ccccc1CC(C)c1nnc(Cc2ccc(Br)cc2)o1 (centres unmarked) &field=CC50 returns > 50 µM

GET /value?item= "Fc1ccccc1/C=C/c1nnc(Cc2cccc(Cl)c2)o1" &field=CC50 returns > 50 µM

GET /value?item= "Cc1cc(Cc2nnc(/C=C/c3ccccc3C(C)C)o2)ccc1Br" &field=CC50 returns > 50 µM

GET /value?item= "Cc1nn(Cc2nnc(S(=O)(=O)Cc3ccccc3-c3ccccc3)o2)c(C)c1Br" &field=CC50 returns > 50 µM

GET /value?item= "Brc1ccc(Cc2nnc(/C=C/c3ccccc3C3CCCCC3)o2)cc1" &field=CC50 returns > 50 µM

====

# procedureDetails: in vitro
# measurementSetup: CC50, third EC50/CC50 column pair (c7), beside the EC50 of c6
Parameter: CC50. Scope: all listed entries.

Observe how each entry below is paired with its result.
Cc1ccccc1CCc1nnc(Nc2ccc(C(F)(F)F)cc2)o1    > 50 µM
C/C(=C\c1ccccc1C)c1nnc(Cc2ccc(Br)cc2)o1    > 50 µM
Cc1ccc(F)c(Cc2nnc(/C=C/c3ccccc3C(C)C)o2)c1    15.8 µM
Fc1ccc(/C=C/c2nnc(Cc3cccc(Br)c3)o2)cc1    > 50 µM
CC(C)c1ccccc1/C=C/c1nnc(Cc2ccc(Br)cc2F)o1    37.2 µM

GET /value?item= "Fc1ccc(Cl)c(/C=C/c2nnc(Cc3cccc(Br)c3)o2)c1" &field=CC50 returns > 50 µM

GET /value?item= "Brc1ccc(Cc2nnc(/C=C/c3ccccc3Oc3ccccc3)o2)cc1" &field=CC50 returns > 50 µM

GET /value?item= "COc1ccccc1/C=C/c1nnc(Cc2cccc(Br)c2)o1" &field=CC50 returns 46.8 µM

GET /value?item= "Clc1cccc(/C=C/c2nnc(Cc3ccc(Br)cc3)o2)c1" &field=CC50 returns > 50 µM

GET /value?item= Brc1ccc(Cc2nnc(CC3CCCc4ccccc43)o2)cc1 (stereo not shown) &field=CC50 returns > 50 µM

GET /value?item= "Cc1ccc(F)c(Cc2nnc(/C=C/c3ccc(F)cc3Cl)o2)c1" &field=CC50 returns > 50 µM

GET /value?item= "Cc1cccc(C)c1/C=C/c1nnc(Cc2ccc(Br)cc2)o1" &field=CC50 returns > 50 µM

GET /value?item= "CC(C)c1ccc(Cc2nnc(SCc3ccccc3-c3ccccc3)o2)cc1" &field=CC50 returns > 50 µM

GET /value?item= "CC(C)c1ccccc1/C=C/c1nnc(Cc2cccc3ccccc23)o1" &field=CC50 returns 13.6 µM

GET /value?item= "Fc1ccc(/C=C/c2nnc(Cc3cccc(Cl)c3)o2)c(Cl)c1" &field=CC50 returns > 50 µM

GET /value?item= "CC(C)c1cccc(/C=C/c2nnc(Cc3ccc(Br)cc3)o2)c1" &field=CC50 returns > 50 µM

GET /value?item= "Cc1ncccc1/C=C/c1nnc(Cc2cccc(Br)c2)o1" &field=CC50 returns > 50 µM

GET /value?item= "Oc1ccccc1/C=C/c1nnc(Cc2ccc(Br)cc2)o1" &field=CC50 returns > 50 µM

GET /value?item= "Clc1cc2c(cc1/C=C/c1nnc(Cc3ccc(Br)cc3)o1)OCO2" &field=CC50 returns > 50 µM
